Reference for the values: patent US20230126447A1

- Assay procedure: Ocular tissue distribution and pharmacokinetics, 7.5 and 15 mg/kg oral, pigmented Dutch Belted rabbits (Example 7)
- Assay type: in vivo
- Assay conditions: Dutch Belted, rabbit, iris-ciliary body, oral, 15 mg/kg, DB rabbits, Day 15, 15 mg/kg BID, 6 hr; read-out: Mean Iris-Ciliary Concentration
Recorded endpoint: concentration at 6 h (ng/g)
Output spec: scalar in ng/g, unitless text.

Input: Look up concentration at 6 h: CC(=O)c1nn(CC(=O)N2C[C@H](F)C[C@H]2C(=O)Nc2cccc(Br)n2)c2ccc(-c3cnc(C)nc3)cc12 [Compound 1]
Output: 939

---

- Assay procedure: Ocular tissue and plasma pharmacokinetics, 50 mg/kg BID oral, Dutch Belted rabbits (Example 4/5)
- Format: in vivo
- Assay conditions: male, Dutch Belted, po; Iris-Ciliary Body, DB rabbit, 50 mg/kg BID, Day 15
Recorded endpoint: Tmax (h)
Output spec: scalar in h, unitless text.

Input: Look up Tmax: CC(=O)c1nn(CC(=O)N2C[C@H](F)C[C@H]2C(=O)Nc2cccc(Br)n2)c2ccc(-c3cnc(C)nc3)cc12
Output: 1

---

- Assay procedure: Ocular tissue and plasma pharmacokinetics, 50 mg/kg BID oral, Dutch Belted rabbits (Example 4/5)
- Assay type: in vivo
- Assay conditions: male, Dutch Belted, po; Iris-Ciliary Body, DB rabbit, 50 mg/kg BID, Day 15
Recorded endpoint: MRT last (h)
Output spec: scalar in h, unitless text.

Input: Look up MRT last: CC(=O)c1nn(CC(=O)N2C[C@H](F)C[C@H]2C(=O)Nc2cccc(Br)n2)c2ccc(-c3cnc(C)nc3)cc12
Output: 88

---

- Assay procedure: Ocular tissue and plasma pharmacokinetics, 50 mg/kg BID oral, Dutch Belted rabbits (Example 4/5)
- Format: in vivo
- Assay conditions: male, Dutch Belted, rabbit, optic nerve, po, 50 mg/kg, DB rabbit, 50 mg/kg BID oral, Day 15, 0 h; read-out: Optic Nerve concentration
Recorded endpoint: concentration at 0 h (ng/g)
Output spec: scalar in ng/g, unitless text.

Input: Look up concentration at 0 h: CC(=O)c1nn(CC(=O)N2C[C@H](F)C[C@H]2C(=O)Nc2cccc(Br)n2)c2ccc(-c3cnc(C)nc3)cc12 [Compound 1]
Output: 45.3

---

- Assay procedure: Ocular tissue distribution and pharmacokinetics, 15 mg/kg BID oral, nonpigmented New Zealand White rabbits (Example 7)
- Format: in vivo
- Assay conditions: New Zealand White, rabbit, plasma, oral; NZW rabbits, Day 15, 15 mg/kg BID, 1 hr; read-out: Mean Plasma Concentration
Recorded endpoint: concentration at 1 h (ng/mL)
Output spec: scalar in ng/mL, unitless text.

Input: Look up concentration at 1 h: CC(=O)c1nn(CC(=O)N2C[C@H](F)C[C@H]2C(=O)Nc2cccc(Br)n2)c2ccc(-c3cnc(C)nc3)cc12
Output: 558

---

- Assay procedure: Ocular tissue distribution and pharmacokinetics, 7.5 and 15 mg/kg oral, pigmented Dutch Belted rabbits (Example 7)
- Format: in vivo
- Assay conditions: male, Dutch Belted, rabbit, choroid-retinal pigment epithelium (choroid-RPE), po, […], Choroid-RPE (OU), male DB rabbits, Group 1, Day 1, […] single oral dose
Recorded endpoint: half-life (h)
Output spec: scalar in h, unitless text.

Input: Look up half-life: CC(=O)c1nn(CC(=O)N2C[C@H](F)C[C@H]2C(=O)Nc2cccc(Br)n2)c2ccc(-c3cnc(C)nc3)cc12 [Compound 1]
Output: 58.9
